Where do the numbers come from? From patent US11179380B2.

Experiment: physchem
quantity-measured: chromatographic logP
Form: value (number only, do not type unit).

Q: Please report the recorded chromatographic logP for CC(=O)Oc1ccccc1C(=O)O[C@H]1COC2C1OC[C@H]2OC(=O)c1cccnc1 (stereo partly shown) [ST0702, Isosorbide-2-aspirinate-5-nicotinate] .
A: 4.1

* * *

Assay: Log P from reversed-phase TLC Rf/Rm values (MeOH in water mobile phases)
Conditions: 60% MeOH in water; calculated from Rf
Please respond with reported Rm for every item in the list.
Form: value (number only, do not type unit).

Q: Please report the recorded Rm for CC(=O)Oc1ccccc1C(=O)O[C@H]1COC2C1OC[C@H]2OC(=O)c1cccnc1 (stereo partly drawn) [ST0702, Isosorbide-2-aspirinate-5-nicotinate] .
A: 0.4254

Q: Please report the recorded Rm for CC(=O)Nc1ccc(O)cc1 [Paracetamol, paracetamol, reference compound] .
A: −0.4679

Q: Please report the recorded Rm for CCCCC(=O)O[C@H]1CO[C@H]2[C@@H]1OC[C@H]2OC(=O)c1cccnc1 [Isosorbide-2-Valeroate-5-nicotinate, Isosorbide 2-valeroate-5-nicotinate] .
A: 0.4254
